# measured-target: SpCyk3
# experimental-protocol: SPOT peptide array binding signal intensity (averaged, normalized) (arbitrary units (background-subtracted, floor 0; scale differs between SH3 domains)); higher = stronger binding of the SH3 domain to the peptide
Think of 10 as a floor: if SPOT peptide array binding signal intensity stands on it or above, it is true; beneath it, false.

Query string: Say whether PLQSKIPMLPSRRTM shows SPOT peptide array binding signal intensity of 10 or more.
Result string: true

Query string: What do you have for RSKRLFPVRPMATAH ?
Result string: false

Query string: What do you have for SSTPTTPERPKRKSG ?
Result string: false

Query string: What do you have for RRLRDKYKLPIVDAD ?
Result string: false

Query string: What do you have for RFKRHRLEFPFNESE ?
Result string: false

Query string: What do you have for FYHRPAPKPPVTKKV ?
Result string: false

Query string: What do you have for LKPPIGRPPKFPKSP ?
Result string: false

Query string: What do you have for RKLRTVPGVPLIHLT ?
Result string: false

Query string: What do you have for HGKRRAPLLLAKLDV ?
Result string: true

Query string: What do you have for MKRSRPSRSIPYTTP ?
Result string: true

Query string: What do you have for RLSFFFPLDPAYIRN ?
Result string: true

Query string: What do you have for KKAPPPVVKPKPRNF ?
Result string: false

Query string: What do you have for TEVPIPRRPPPPQAA ?
Result string: false

Query string: What do you have for LLRRTIPKRPFYHVL ?
Result string: false

Cited source for all entries: the supplement of paper PMC4466140
